Documented aorta:heart across a set of molecules
Tested on: aorta
experimental setup: ApoE mice, 60 min post injection, uptake ratio
quantity measured: aorta:heart

molecule	obs value
[153Gd+3].[NH3+][C@H](Cc1ccc2ccccc2c1)C(=O)NOCc1ccc(CNC(=O)CN(CCN(CC(=O)[O-])CC(=O)[O-])CCN(CC(=O)[O-])CC(=O)[O-])cc1 [Example 57]	17.8
N[C@H](CCc1ccccc1)C(=O)NOCc1ccc(CNC(=O)CN2CCN(CC(=O)[O-])CCN(CC(=O)[O-])CCN(CC(=O)[O-])CC2)cc1.[153Gd+3] [Example 38]	20.5
N[C@H](Cc1cc2ccccc2[nH]1)C(=O)NOCc1ccc(CNC(=O)CN2CCN(CC(=O)[O-])CCN(CC(=O)[O-])CCN(CC(=O)[O-])CC2)cc1.[153Gd+3] [Example 62]	22.2
N[C@H](Cc1ccc(CNC(=O)CN2CCN(CC(=O)[O-])CCN(CC(=O)[O-])CCN(CC(=O)[O-])CC2)cc1)C(=O)NOCc1ccccc1.[153Gd+3] [Example 55]	8.8
[153Gd+3].[NH3+][C@H](CC1CCCCC1)C(=O)NOCCCCCCNC(=O)CN(CCN(CC(=O)[O-])CC(=O)[O-])CCN(CC(=O)[O-])CC(=O)[O-] [Example 42]	18.0
[153Gd+3].[NH3+][C@H](CCc1ccccc1)C(=O)NOCCc1ccc(CNC(=O)CN(CCN(CC(=O)[O-])CC(=O)[O-])CCN(CC(=O)[O-])CC(=O)[O-])cc1 [Example 50]	13.5
[153Gd+3].[NH3+][C@H](Cc1c[nH]c2ccccc12)C(=O)NOCCCc1ccc(CNC(=O)CN(CCN(CC(=O)[O-])CC(=O)[O-])CCN(CC(=O)[O-])CC(=O)[O-])cc1 [Example 43]	9.0
[153Gd+3].[NH3+][C@H](CCc1ccccc1)C(=O)NOc1ccc(CNC(=O)CN(CCN(CC(=O)[O-])CC(=O)[O-])CCN(CC(=O)[O-])CC(=O)[O-])cc1 [Example 47]	4.8
CC(C)C[C@@H]([NH3+])C(=O)NOCCCCCCNC(=O)CN(CCN(CC(=O)[O-])CC(=O)[O-])CCN(CC(=O)[O-])CC(=O)[O-].[153Gd+3] [Example 40]	8.4
